# Test System: human NaV1.8/β3 (Homo sapiens)
# Construct: expressed in transfected cells
# Sequence (Q9Y5Y9 whole entry): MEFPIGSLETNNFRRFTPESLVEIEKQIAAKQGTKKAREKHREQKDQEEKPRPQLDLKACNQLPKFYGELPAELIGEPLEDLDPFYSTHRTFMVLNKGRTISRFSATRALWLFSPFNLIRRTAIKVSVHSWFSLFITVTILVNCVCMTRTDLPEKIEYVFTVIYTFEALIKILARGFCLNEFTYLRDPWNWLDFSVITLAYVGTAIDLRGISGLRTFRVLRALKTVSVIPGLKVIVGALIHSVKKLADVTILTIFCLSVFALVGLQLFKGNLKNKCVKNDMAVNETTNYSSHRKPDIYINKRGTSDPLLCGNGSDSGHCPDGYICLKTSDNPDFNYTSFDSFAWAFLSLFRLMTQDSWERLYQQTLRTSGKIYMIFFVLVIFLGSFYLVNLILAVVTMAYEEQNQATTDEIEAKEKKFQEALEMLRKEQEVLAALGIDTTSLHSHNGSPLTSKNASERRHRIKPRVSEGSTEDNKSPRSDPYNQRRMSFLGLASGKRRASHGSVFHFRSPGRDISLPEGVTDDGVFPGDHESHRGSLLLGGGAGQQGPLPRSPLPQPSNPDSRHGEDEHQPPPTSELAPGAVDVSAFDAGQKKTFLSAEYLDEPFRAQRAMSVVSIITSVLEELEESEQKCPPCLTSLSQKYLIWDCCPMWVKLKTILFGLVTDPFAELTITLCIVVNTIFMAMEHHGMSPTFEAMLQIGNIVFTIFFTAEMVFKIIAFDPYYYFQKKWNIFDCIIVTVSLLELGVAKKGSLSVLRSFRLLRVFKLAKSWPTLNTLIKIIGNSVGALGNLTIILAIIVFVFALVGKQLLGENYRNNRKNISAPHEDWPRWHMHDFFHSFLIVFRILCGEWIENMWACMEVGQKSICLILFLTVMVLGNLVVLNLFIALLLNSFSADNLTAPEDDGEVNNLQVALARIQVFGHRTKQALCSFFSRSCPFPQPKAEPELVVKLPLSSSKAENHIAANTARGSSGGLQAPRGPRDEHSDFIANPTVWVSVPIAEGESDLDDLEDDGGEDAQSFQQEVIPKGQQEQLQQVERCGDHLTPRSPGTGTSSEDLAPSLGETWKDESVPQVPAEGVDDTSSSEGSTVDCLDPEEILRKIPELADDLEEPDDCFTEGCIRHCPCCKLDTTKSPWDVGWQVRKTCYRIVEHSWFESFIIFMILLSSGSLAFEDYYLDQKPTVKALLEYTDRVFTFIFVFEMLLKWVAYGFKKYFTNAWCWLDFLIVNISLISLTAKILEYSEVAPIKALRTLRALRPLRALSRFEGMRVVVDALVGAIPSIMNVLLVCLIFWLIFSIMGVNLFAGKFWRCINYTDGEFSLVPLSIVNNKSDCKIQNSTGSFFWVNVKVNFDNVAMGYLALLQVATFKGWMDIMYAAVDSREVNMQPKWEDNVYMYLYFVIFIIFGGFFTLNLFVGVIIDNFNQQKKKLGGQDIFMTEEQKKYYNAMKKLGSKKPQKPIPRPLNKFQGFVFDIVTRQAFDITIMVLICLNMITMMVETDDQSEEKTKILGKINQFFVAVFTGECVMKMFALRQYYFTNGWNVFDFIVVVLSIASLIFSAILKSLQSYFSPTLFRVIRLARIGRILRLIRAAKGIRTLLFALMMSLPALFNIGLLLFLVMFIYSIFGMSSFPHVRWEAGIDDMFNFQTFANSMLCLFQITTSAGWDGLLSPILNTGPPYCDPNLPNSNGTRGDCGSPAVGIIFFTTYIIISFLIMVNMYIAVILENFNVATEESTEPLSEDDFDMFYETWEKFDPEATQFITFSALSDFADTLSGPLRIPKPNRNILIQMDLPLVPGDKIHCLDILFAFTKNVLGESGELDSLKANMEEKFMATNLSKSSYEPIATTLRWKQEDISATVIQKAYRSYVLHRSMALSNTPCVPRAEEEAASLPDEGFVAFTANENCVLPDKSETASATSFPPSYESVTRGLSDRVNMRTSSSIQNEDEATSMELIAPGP
# Sequence (Q9NY72 25-215 partner limits assumed): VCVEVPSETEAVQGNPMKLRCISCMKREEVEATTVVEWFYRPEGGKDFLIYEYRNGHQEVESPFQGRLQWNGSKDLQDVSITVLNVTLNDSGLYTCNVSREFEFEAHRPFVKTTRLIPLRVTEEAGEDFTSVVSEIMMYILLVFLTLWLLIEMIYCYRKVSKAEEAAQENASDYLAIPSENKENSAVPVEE
# Procedure Text: Automated whole-cell patch-clamp electrophysiology (QPatch-16), NaV1.8
# Format: cell-based
# Study Conditions: resting state: 50 ms voltage step to 10 mV from −90 mV holding potential; CHO cells; mean ± SEM; read-out: IC50, inhibition of NaV1.8 peak current
# Protocol: Human embryonic kidney (HEK) 293 cells stably expressing human NaV1.7/β1 (SB Drug Discovery, Glasgow, UK) or Chinese hamster ovary (CHO) cells stably expressing human NaV1.8/β3 in a tetracycline-inducible system were cultured in a minimum essential media (MEM) supplemented with 10% fetal bovine serum (FBS), 2 mM l-glutamine, and selection antibiotics as recommended by the manufacturer. […] The data were plotted and analyzed via GraphPad Prism, version 9.5.1. […]
Readout Label: IC50
Reply with a number, then the unit it belongs to.

INSERT INTO assay_data (molecule, test_system, readout_label, result) VALUES
  ('CC1=CC[C@H]2C[C@@H]1[C@@H](Cc1c[nH]c3ccccc13)NC2(C)C', 'human NaV1.8/β3 (Homo sapiens)', 'IC50', '54 µM');

Next, consider the following molecule.
Ask: Please state recorded IC50 (tested on human NaV1.8/β3 (Homo sapiens)) of CC1(C)NC2Cc3c([nH]c4ccccc34)C3(C)CCC1CC23 (centres unmarked)
Result: 68 µM
